// provenance: ChEMBL document CHEMBL1134031

# PROTOCOL_NOTES: in vitro
# CONDITION_SUMMARY: rat, 80% rat plasma
# Description: Half life period in 80% rat plasma at 37 degree Centigrade
# strict inequality: half-life < 4 min yields fulfilled, everything else yields not fulfilled

substance_smiles=COC(=O)[C@H](Cc1ccc(OC(C)=O)c(OC(C)=O)c1)NC(=O)CCC(=O)N[C@@H](Cc1ccc(OC(C)=O)c(OC(C)=O)c1)C(=O)OC discrete_label=fulfilled
substance_smiles=COC(=O)[C@H](Cc1ccc(OC(C)=O)c(OC(C)=O)c1)NC(=O)N[C@@H](Cc1ccc(OC(C)=O)c(OC(C)=O)c1)C(=O)OC discrete_label="not fulfilled"
substance_smiles=COC(=O)[C@H](Cc1ccc(OC(C)=O)c(OC(C)=O)c1)NC(=O)CCCC(=O)N[C@@H](Cc1ccc(OC(C)=O)c(OC(C)=O)c1)C(=O)OC discrete_label=fulfilled
substance_smiles=COC(=O)[C@H](Cc1ccc(OC(C)=O)c(OC(C)=O)c1)NC(=O)C(=O)N[C@@H](Cc1ccc(OC(C)=O)c(OC(C)=O)c1)C(=O)OC discrete_label="not fulfilled"
